# System: muscarinic receptors
# Protocol Notes: Muscarinic receptors binding, radioligand [3H]-N-methylscopolamine, rat striatal membranes
# Test Conditions: at 10^−5 M
Can you tell me Displacement of [^3H] N-methylscopolamine from muscarinic receptors for the items I'm about to list?
Numbers only, in % at 10^−5 M.

- Compound: "CCCNC(=O)C1=CN(C)c2cc(OC(=O)N(C)C)ccc2C1"
  Assayed Target: "muscarinic receptors"
  Units Label: "% at 10^−5 M"
  Recorded Number: 25

Now look at this one.
Quick note, Displacement of [^3H] N-methylscopolamine from muscarinic receptors for COC(=O)c1cc2c(OC(=O)N(C)C)cccc2[n+](C)c1 [Compound 67E] landed at 0

---

# Protocol Notes: Pharmacokinetic: half-life and distribution volume in mice, plasma HPLC
# Test Conditions: both, Swiss albino, mouse, in vivo, ip, 10 mg/kg, Plasmatic half-life time T1/2, mice, intraperitoneal injection of 10 mg/kg of compound 67 under its inclusion form (example 82)
Observed Property: half-life (min)
One number for each entry, in min.

half-life for `COC(=O)C1=CN(C)c2cccc(OC(=O)N(C)C)c2C1` is 14

---

# Protocol Notes: Pharmacokinetic: half-life and distribution volume in mice, plasma HPLC
# Test Conditions: both, Swiss albino, mouse, in vivo, ip, 10 mg/kg
Observed Property: C0 (nM)
One number for each entry, in nM.

Entry `COC(=O)C1=CN(C)c2cccc(OC(=O)N(C)C)c2C1` — recorded C0 = 806
